Tested on: Human Oral Mucosa Explant Tissues
Assay: Effect of final gel pH on anthocyanin uptake into human oral mucosa explant tissues
Type: in vitro ADME
Conditions: explant sample 001; 10% w/w FBR gel
Measured Parameter: Anthocyanin uptake, Gel pH 6.5 (pmol per mg tissue)

C[C@@H]1O[C@@H](OC[C@H]2O[C@@H](Oc3cc4c(O)cc(O)cc4[o+]c3-c3ccc(O)c(O)c3)[C@H](O)[C@@H](O)[C@@H]2O)[C@H](O)[C@H](O)[C@H]1O [cyanidin 3-rutinoside] :: 668.3

A. CC1OC(OCC2OC(Oc3cc4c(O)cc(O)cc4[o+]c3-c3ccc(O)c(O)c3)C(OC3OCC(O)C(O)C3O)C(O)C2O)C(O)C(O)C1O (stereo not shown) [cyanidin 3-xylosylrutinoside]
B. OC[C@H]1O[C@@H](Oc2cc3c(O)cc(O)cc3[o+]c2-c2ccc(O)c(O)c2)[C@H](O)[C@@H](O)[C@@H]1O [cyanidin 3-glucoside]
C. OC[C@H]1O[C@@H](Oc2cc3c(O)cc(O)cc3[o+]c2-c2ccc(O)c(O)c2)[C@H](O[C@@H]2OC[C@@H](O)[C@H](O)[C@H]2O)[C@@H](O)[C@@H]1O.[Cl-] [Cyanidin 3-sambubioside, cyanidin 3-sambubioside]
Q. Could you please sort these 3 entries by Anthocyanin uptake, Gel pH 6.5 from high to low? Give your ranking as a list of the labels in the requested order.
A. B, A, C

* * *

Tested on: Human Oral Mucosa Explant Tissues
Assay: Effect of final gel pH on anthocyanin uptake into human oral mucosa explant tissues
Format: in vitro ADME
Conditions: explant sample 010; 10% w/w FBR gel
Measured Parameter: Anthocyanin uptake, Gel pH 6.5 (pmol per mg tissue)

A. OC[C@H]1O[C@@H](Oc2cc3c(O)cc(O)cc3[o+]c2-c2ccc(O)c(O)c2)[C@H](O[C@@H]2OC[C@@H](O)[C@H](O)[C@H]2O)[C@@H](O)[C@@H]1O.[Cl-] [Cyanidin 3-sambubioside, cyanidin 3-sambubioside]
B. C[C@@H]1O[C@@H](OC[C@H]2O[C@@H](Oc3cc4c(O)cc(O)cc4[o+]c3-c3ccc(O)c(O)c3)[C@H](O)[C@@H](O)[C@@H]2O)[C@H](O)[C@H](O)[C@H]1O [cyanidin 3-rutinoside]
C. OC[C@H]1O[C@@H](Oc2cc3c(O)cc(O)cc3[o+]c2-c2ccc(O)c(O)c2)[C@H](O)[C@@H](O)[C@@H]1O [cyanidin 3-glucoside]
Q. Parameters: sort_field (Anthocyanin uptake, Gel pH 6.5), sort_dir (desc). Answer format: list of labels, ordered as asked.
A. C, B, A
(C: 4.6 pmol per mg tissue, B: 3.2 pmol per mg tissue, A: 0.1 pmol per mg tissue)
